Measured For. Trans. (Fold Incr.) accompanies every entry in the list below.
- testSystem: human pIgR, full-length, on cells (human, UniProt P01833 19-764)
- Sequence (P01833 19-764): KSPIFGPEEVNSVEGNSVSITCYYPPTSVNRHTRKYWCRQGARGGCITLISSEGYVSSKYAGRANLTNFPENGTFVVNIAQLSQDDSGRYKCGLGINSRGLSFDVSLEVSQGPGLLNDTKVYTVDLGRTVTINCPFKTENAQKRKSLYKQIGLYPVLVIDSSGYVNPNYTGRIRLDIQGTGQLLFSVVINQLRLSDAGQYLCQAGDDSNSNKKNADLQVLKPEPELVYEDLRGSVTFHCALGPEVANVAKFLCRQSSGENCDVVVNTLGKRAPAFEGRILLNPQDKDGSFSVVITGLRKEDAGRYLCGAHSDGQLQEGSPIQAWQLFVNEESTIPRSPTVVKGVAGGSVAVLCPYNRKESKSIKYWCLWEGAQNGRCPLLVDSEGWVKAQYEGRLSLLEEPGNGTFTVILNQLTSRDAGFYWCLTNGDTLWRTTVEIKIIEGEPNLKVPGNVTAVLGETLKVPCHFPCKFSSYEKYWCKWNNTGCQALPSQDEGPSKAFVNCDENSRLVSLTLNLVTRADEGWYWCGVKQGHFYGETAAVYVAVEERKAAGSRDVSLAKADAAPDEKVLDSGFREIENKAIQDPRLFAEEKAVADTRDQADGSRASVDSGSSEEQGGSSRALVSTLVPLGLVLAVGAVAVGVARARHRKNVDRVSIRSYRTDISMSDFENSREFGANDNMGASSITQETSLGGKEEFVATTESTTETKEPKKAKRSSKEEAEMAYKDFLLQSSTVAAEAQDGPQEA
- methodSummary: cell-based or functional assay
testReadout: For. Trans. (Fold Incr.) (fold)

1. VHH12-linker-mono-Fc protein (Fc fusion, made in CHO cells; also called VHH12-mono-Fc; hpIgR_266) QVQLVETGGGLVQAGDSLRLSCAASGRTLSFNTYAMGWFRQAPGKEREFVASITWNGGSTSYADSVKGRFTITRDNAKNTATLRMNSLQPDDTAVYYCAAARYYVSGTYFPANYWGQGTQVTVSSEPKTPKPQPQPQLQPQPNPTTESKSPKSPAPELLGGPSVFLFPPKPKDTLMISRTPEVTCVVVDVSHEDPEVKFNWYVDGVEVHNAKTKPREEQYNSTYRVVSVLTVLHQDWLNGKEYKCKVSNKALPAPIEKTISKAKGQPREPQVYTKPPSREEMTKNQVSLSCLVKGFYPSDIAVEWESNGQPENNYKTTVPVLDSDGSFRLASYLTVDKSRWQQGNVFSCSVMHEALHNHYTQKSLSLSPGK    29.5
2. VHH11-linker-mono-Fc protein (Fc fusion, made in CHO cells; also called VHH11-mono-Fc; hpIgR_250) EVQVVESGGGLVQAGGSLRLSCAASGRTFTTYRMGWFRQAPGKEREFVAAIRWSGGRTLYADSVKGRFTISRDNAKNTAYLQMNNLRPEDTAVYYCAADLAEYSGTYSSPADSPAGYDYWGQGTQVTVSSEPKTPKPQPQPQLQPQPNPTTESKSPKSPAPELLGGPSVFLFPPKPKDTLMISRTPEVTCVVVDVSHEDPEVKFNWYVDGVEVHNAKTKPREEQYNSTYRVVSVLTVLHQDWLNGKEYKCKVSNKALPAPIEKTISKAKGQPREPQVYTKPPSREEMTKNQVSLSCLVKGFYPSDIAVEWESNGQPENNYKTTVPVLDSDGSFRLASYLTVDKSRWQQGNVFSCSVMHEALHNHYTQKSLSLSPGK    24.2
3. VHH2-linker-mono-Fc protein (Fc fusion, also called VHH2-mono-Fc; mpIgR_338) EVQVVESGGGLVQAGGSLKLACAAPGLTFSSYRMGWFRQAPGQEREFVAAIDWNGRGTYYRYYADSVKGRSTISRDNAKNTVYLQMNSLKPEDTAVYYCAATTVLTDPRVLNEYATWGQGTQVTVSSEPKTPKPQPQPQLQPQPNPTTESKSPKSPAPELLGGPSVFLFPPKPKDTLMISRTPEVTCVVVDVSHEDPEVKFNWYVDGVEVHNAKTKPREEQYNSTYRVVSVLTVLHQDWLNGKEYKCKVSNKALPAPIEKTISKAKGQPREPQVYTKPPSREEMTKNQVSLSCLVKGFYPSDIAVEWESNGQPENNYKTTVPVLDSDGSFRLASYLTVDKSRWQQGNVFSCSVMHEALHNHYTQKSLSLSPGK    21
4. VHH7-linker-mono-Fc protein (Fc fusion, made in CHO cells; also called VHH7-mono-Fc; hpIgR_198) EVQVVESGGGLVQAGGSLRLACVASRSIGSINVMGWYRQAPGKQRDLVARITGGGSTHYAESVKGRFTISRDNAKNTVYLQMNSLEPEDTAVYYCASMVNPIITAWGTIGVREIPDYDYWGQGTQVTVSSEPKTPKPQPQPQLQPQPNPTTESKSPKSPAPELLGGPSVFLFPPKPKDTLMISRTPEVTCVVVDVSHEDPEVKFNWYVDGVEVHNAKTKPREEQYNSTYRVVSVLTVLHQDWLNGKEYKCKVSNKALPAPIEKTISKAKGQPREPQVYTKPPSREEMTKNQVSLSCLVKGFYPSDIAVEWESNGQPENNYKTTVPVLDSDGSFRLASYLTVDKSRWQQGNVFSCSVMHEALHNHYTQKSLSLSPGK    1.9
5. VHH6-linker-mono-Fc protein (Fc fusion, made in CHO cells; also called VHH6-mono-Fc; hpIgR_181) EVQLVESGGGLVQAGGSLRLSCAVSGSSVSSDAMGWYRQAPGNQRAWVAFISGGGTTTYADSVKGRFTISRDNTKNTVYLHMNSLKPEDTAVYYCNHPLTSRWGQGTQVTVSSEPKTPKPQPQPQLQPQPNPTTESKSPKSPAPELLGGPSVFLFPPKPKDTLMISRTPEVTCVVVDVSHEDPEVKFNWYVDGVEVHNAKTKPREEQYNSTYRVVSVLTVLHQDWLNGKEYKCKVSNKALPAPIEKTISKAKGQPREPQVYTKPPSREEMTKNQVSLSCLVKGFYPSDIAVEWESNGQPENNYKTTVPVLDSDGSFRLASYLTVDKSRWQQGNVFSCSVMHEALHNHYTQKSLSLSPGK    25.6
6. VHH3-linker-mono-Fc protein (Fc fusion, made in CHO cells; also called VHH3-mono-Fc; hpIgR_021) QLQLVESGGGLVQPGGSLRLSCAASGSIFSINVMGWYRQAPGKQRELVARINGGGITHYAESVKGRFTISRDNAKNTVYLQMNSLKPEDTAAYYCKADVFGSSGYVETYWGQGTQVTVSSEPKTPKPQPQPQLQPQPNPTTESKSPKSPAPELLGGPSVFLFPPKPKDTLMISRTPEVTCVVVDVSHEDPEVKFNWYVDGVEVHNAKTKPREEQYNSTYRVVSVLTVLHQDWLNGKEYKCKVSNKALPAPIEKTISKAKGQPREPQVYTKPPSREEMTKNQVSLSCLVKGFYPSDIAVEWESNGQPENNYKTTVPVLDSDGSFRLASYLTVDKSRWQQGNVFSCSVMHEALHNHYTQKSLSLSPGK    1
7. VHH9-linker-mono-Fc protein (Fc fusion, made in CHO cells; also called VHH9-mono-Fc; hpIgR_221) QVQLVESGGGLVQAGGSLRLSCAVSGRTFSTYRMGWFRQAPGKERSFVAAISWSGGSTTYADPVKGRFTISRDNAKNTVYLRMNSLKPEDTAVYYCNDQRGYWGQGTLVTVSSEPKTPKPQPQPQLQPQPNPTTESKSPKSPAPELLGGPSVFLFPPKPKDTLMISRTPEVTCVVVDVSHEDPEVKFNWYVDGVEVHNAKTKPREEQYNSTYRVVSVLTVLHQDWLNGKEYKCKVSNKALPAPIEKTISKAKGQPREPQVYTKPPSREEMTKNQVSLSCLVKGFYPSDIAVEWESNGQPENNYKTTVPVLDSDGSFRLASYLTVDKSRWQQGNVFSCSVMHEALHNHYTQKSLSLSPGK    24.2
